Hey, just so you know, these numbers are from the supplement of paper PMC7125110.

B1: glmS ribozyme (parent)
chain: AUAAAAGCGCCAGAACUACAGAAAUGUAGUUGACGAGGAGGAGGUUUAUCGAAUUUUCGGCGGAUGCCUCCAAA

Variants of: B1
Assay: self-cleavage kobs at 160 uM GlcN6P; higher = faster cleavage; RNA array
Conditions: with glucosamine-6-phosphate
This sample holds only a part of the variants without activity.
propertyMeasured: self-cleavage kobs at 160 uM GlcN6P

variant G7C U31G , self-cleavage kobs at 160 uM GlcN6P observed: < 1e-05 s⁻¹

// field: self-cleavage kobs at 160 uM GlcN6P; key: C16U U55C ; value = 0.00153 s⁻¹

self-cleavage kobs at 160 uM GlcN6P measured on G7A C50U = < 1e-05 s⁻¹

// recorded self-cleavage kobs at 160 uM GlcN6P for G63A U69A : 5.41e-05 s⁻¹

Sample G66A U69G ; self-cleavage kobs at 160 uM GlcN6P observed: 8.36e-05 s⁻¹

# self-cleavage kobs at 160 uM GlcN6P (variant: G7U C10A G29C U57C ) is < 1e-05 s⁻¹

The variant listed as G41C C61U has a reported self-cleavage kobs at 160 uM GlcN6P of < 1e-05 s⁻¹

Looking up G60C U69G , I found its self-cleavage kobs at 160 uM GlcN6P recorded as < 1e-05 s⁻¹

So, G38U U65A ? Its self-cleavage kobs at 160 uM GlcN6P was < 1e-05 s⁻¹

Record summary for G9C A53G : reported self-cleavage kobs at 160 uM GlcN6P = < 1e-05 s⁻¹

Entry A33U C50U ; self-cleavage kobs at 160 uM GlcN6P = < 1e-05 s⁻¹

Sample U47G C50A A64G U69G ; self-cleavage kobs at 160 uM GlcN6P observed: 0.000158 s⁻¹

Lab book: self-cleavage kobs at 160 uM GlcN6P of G13C G59U noted as < 1e-05 s⁻¹

Consider G60A G66A . Its measured self-cleavage kobs at 160 uM GlcN6P is < 1e-05 s⁻¹

self-cleavage kobs at 160 uM GlcN6P measured on G32C C34U = < 1e-05 s⁻¹

// U57G C58U C70U : self-cleavage kobs at 160 uM GlcN6P value = < 1e-05 s⁻¹

self-cleavage kobs at 160 uM GlcN6P in this record for A36G A64G : < 1e-05 s⁻¹

Record summary for A53U U69C : reported self-cleavage kobs at 160 uM GlcN6P = 0.000141 s⁻¹

# self-cleavage kobs at 160 uM GlcN6P (variant: U31A U56C ) is 0.000186 s⁻¹

What the record says about A39C G41U U46G : self-cleavage kobs at 160 uM GlcN6P is < 1e-05 s⁻¹

For this variant ( A52G C61U ), measured self-cleavage kobs at 160 uM GlcN6P is < 1e-05 s⁻¹

Value of measured self-cleavage kobs at 160 uM GlcN6P for the entry G41U U47A : 0.000127 s⁻¹

Record summary for G29U U55C : reported self-cleavage kobs at 160 uM GlcN6P = 0.000198 s⁻¹

The variant C11G U55C showed self-cleavage kobs at 160 uM GlcN6P equal to < 1e-05 s⁻¹

Notebook: G40C U45G , self-cleavage kobs at 160 uM GlcN6P read as 9.8e-05 s⁻¹
